Molecular target: cAMP and cAMP-inhibited cGMP 3',5'-cyclic phosphodiesterase 10A (Homo sapiens, UniProt Q9Y233)
Sequence (Q9Y233 whole entry, the tested form may be a part): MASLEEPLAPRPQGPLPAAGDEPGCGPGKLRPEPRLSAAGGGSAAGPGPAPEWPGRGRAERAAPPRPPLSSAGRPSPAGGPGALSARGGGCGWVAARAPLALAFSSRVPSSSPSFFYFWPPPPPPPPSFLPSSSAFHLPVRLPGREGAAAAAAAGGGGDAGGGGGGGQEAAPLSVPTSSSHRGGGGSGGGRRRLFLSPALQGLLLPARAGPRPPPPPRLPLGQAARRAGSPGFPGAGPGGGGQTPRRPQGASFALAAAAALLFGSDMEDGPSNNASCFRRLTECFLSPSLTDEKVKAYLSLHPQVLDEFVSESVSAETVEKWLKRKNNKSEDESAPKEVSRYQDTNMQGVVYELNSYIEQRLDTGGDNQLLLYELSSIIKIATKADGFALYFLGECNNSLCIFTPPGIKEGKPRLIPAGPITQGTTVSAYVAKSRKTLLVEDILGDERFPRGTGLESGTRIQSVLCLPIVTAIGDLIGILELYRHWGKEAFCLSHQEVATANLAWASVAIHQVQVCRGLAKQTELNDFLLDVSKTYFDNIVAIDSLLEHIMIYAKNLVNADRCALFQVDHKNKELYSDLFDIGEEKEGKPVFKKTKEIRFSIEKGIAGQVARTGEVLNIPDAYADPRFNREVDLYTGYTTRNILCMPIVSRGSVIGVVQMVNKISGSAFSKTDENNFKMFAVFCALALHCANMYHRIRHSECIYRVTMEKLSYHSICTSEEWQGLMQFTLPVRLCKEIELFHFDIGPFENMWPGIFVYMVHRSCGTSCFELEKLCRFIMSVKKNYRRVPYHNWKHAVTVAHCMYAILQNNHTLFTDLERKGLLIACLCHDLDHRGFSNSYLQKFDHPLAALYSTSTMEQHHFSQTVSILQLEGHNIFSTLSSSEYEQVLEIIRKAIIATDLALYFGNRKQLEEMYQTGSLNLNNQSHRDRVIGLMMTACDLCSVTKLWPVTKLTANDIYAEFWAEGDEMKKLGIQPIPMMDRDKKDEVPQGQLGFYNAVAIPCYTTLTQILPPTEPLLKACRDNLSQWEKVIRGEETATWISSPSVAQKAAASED
Assay: Inhibition of recombinant human N-terminal GST-tagged PDE10A1 (2 to 789 residues) expressed in baculovirus infected Sf9 cells using fluorescein-labeled cAMP as substrate preincubated for 15 mins followed by substrate addition measured after 30 mins by IMAP fluorescence polarization assay
quantity_name: IC50 (nM)

Examples with answers:
COc1ccc(-c2ccc(CNc3c(C)nc4c(N5CCOCC5)nccn34)cc2)cc1OC = 452
Brc1ccc(Cn2cnc3c(N4CCOCC4)ncnc32)cc1 = 530
Cc1nc2c(N3CCOCC3)nccn2c1NCCc1c(Cl)cccc1Cl = 447
COc1ccc(CCNc2c(C)nc3c(N4CCOCC4)nccn23)c(Br)c1 = 243
Cc1ccc(-c2ccc(Cn3cnc4c(N5CCOCC5)ncnc43)cc2)cc1 = 75

a = Cc1cc(-c2ccc(Cn3c(C)nc4c(N5CCOCC5)ncnc43)cc2)ccn1
b = Cc1nc2c(N3CCOCC3)ncnc2n1Cc1ccc(-c2cccc(Cl)c2)cc1
c = Cc1nc2c(N3CCOCC3)nccn2c1NCc1ccc(-c2ccncc2)cc1
# input Please list the entries, largest IC50 first. Answer by listing the labels in the order asked for.
# output c, b, a

---

Biological target: cAMP and cAMP-inhibited cGMP 3',5'-cyclic phosphodiesterase 10A (Homo sapiens, UniProt Q9Y233)
Assay: Inhibition of recombinant human N-terminal GST-tagged PDE10A1 (2 to 789 residues) expressed in baculovirus infected Sf9 cells at 5 uM using fluorescein-labeled cAMP as substrate preincubated for 15 mins followed by substrate addition measured after 30 mins by IMAP fluorescence polarization assay relative to control
quantity_name: inhibition (%)

COc1ccc(-c2ccc(Cn3c(C)nc4c(N5CCOCC5)ncnc43)cc2)cc1 = 94
Cc1nc2c(N3CCOCC3)ncnc2n1Cc1ccc(-c2cnn(C)c2)cc1 = 96
COc1ccc(CCNc2c(C)nc3c(N4CCOCC4)nccn23)cc1OC = 83

// data source = ChEMBL document CHEMBL4020742
